# Lookup of reported Apo-One Apoptosis Assay, 50 ng/ml, second block (ratio to Fc null) keyed by entry
Biological target: human CD3 (human) (UniProt P07766)
Sequence (P07766 23-207): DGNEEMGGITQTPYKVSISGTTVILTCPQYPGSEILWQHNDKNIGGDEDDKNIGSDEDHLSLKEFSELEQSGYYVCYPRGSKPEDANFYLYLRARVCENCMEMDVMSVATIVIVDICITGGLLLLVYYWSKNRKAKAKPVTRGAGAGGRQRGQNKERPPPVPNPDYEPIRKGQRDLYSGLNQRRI
Assay: cell-based or functional assay
When you answer, write just the number.

anti-CD3 HuFR antibody 1 (heavy chain BD20610, light chain BD21130) (antibody, part only; not given: Heavy stretch before framework 4, V domains shown, part only) VH, part: QVQLVESGAEVKKPGASVKVSCKASGYTFTRYTMHWVRQAPGKGLEWMGYINPSRGYTNYNQKFKDRVTISVDTSKNQFSLKLSSVTAADTAVYYCARYYDDHYCLDYVTVSSASTKGPS VL: DIQMTQSPSSLSASVGDRVTITCSASSSVSYMNWYQQKPGQPPKLLIYDTSKLASGVPDRFSGSGSGTDFTLKISRVEAEDVGVYYCQQWSSNPFTFGQGTKVEIKFGQGTKVEIKR	1.5
anti-CD3 HuFR antibody 9 (heavy chain BD20613, light chain BD21138) (antibody, part only; not given: few VH framework 4 residues, V domains shown, part only) VH, part: QVQLQESGPGLVKPSETLSLTCAVSGYTFTRYTMHWVRQAPGKGLEWVGYINPSRGYTNYNQKFKDRFTISRDDSKNTAYLQMNSLKTEDTAVYYCTRYYDDHYCLDYVTVSSASTKGPS VL: DIQMTQSPSTLSASVGDRVTITCSASSSVSYMNWYQQKPGKAPKLLIYDTSKLASGVPDRFSGSGSGTDFTLKISRVEAEDVGVYYCQQWSSNPFTFGQGTKVEIKFGQGTKVEIKR	1.7
anti-CD3 HuFR antibody 4 (heavy chain BD20611, light chain BD21133) (antibody, part only; not given: Heavy stretch before framework 4, V domains shown, part only) VH, part: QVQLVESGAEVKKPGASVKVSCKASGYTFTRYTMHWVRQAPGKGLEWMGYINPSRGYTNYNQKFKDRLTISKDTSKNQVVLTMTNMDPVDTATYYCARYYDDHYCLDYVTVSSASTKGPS VL: DIVMTQSPLSLPVTPGEPASISCSASSSVSYMNWYQQKPGQPPKLLIYDTSKLASGVPSRFSGSGSGTEFTLTISSLQPDDFATYYCQQWSSNPFTFGQGTKVEIKFGQGTKVEIKR	2.8

Next, consider the following binder.
Fill blank: measured Apo-One Apoptosis Assay, 50 ng/ml, second block (ratio to Fc null) of the binder anti-CD3 HuFR antibody 3 (heavy chain BD20611, light chain BD21132) (antibody, part only; not given: Heavy stretch before framework 4, V domains shown, part only) VH, part: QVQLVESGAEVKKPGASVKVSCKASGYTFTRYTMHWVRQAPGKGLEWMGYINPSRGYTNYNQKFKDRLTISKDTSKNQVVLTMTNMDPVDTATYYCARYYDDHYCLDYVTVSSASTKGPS VL: EIVLTQSPATLSLSPGERATLSCSASSSVSYMNWYQQKPGKAPKLLIYDTSKLASGVPSRFSGSGSGTEFTLTISSLQPDDFATYYCQQWSSNPFTFGQGTKVEIKFGQGTKVEIKR is ____.
1
